Assay overview: Half life in rat at 1 mg/kg, po
Format: ADME, organism-based
Design: dose 1 mg/kg, route oral
Assay conditions: in vivo
Value type: half-life (h)
Report the value in h with no unit label.

Q) Bench note: what half-life did "C[C@@H]1CCCN1CCc1ccc2cc(-n3ncccc3=O)ccc2c1" show?
A) 4.9

====

Measured target: Histamine H1 receptor (Homo sapiens)
Sequence (P35367 whole entry): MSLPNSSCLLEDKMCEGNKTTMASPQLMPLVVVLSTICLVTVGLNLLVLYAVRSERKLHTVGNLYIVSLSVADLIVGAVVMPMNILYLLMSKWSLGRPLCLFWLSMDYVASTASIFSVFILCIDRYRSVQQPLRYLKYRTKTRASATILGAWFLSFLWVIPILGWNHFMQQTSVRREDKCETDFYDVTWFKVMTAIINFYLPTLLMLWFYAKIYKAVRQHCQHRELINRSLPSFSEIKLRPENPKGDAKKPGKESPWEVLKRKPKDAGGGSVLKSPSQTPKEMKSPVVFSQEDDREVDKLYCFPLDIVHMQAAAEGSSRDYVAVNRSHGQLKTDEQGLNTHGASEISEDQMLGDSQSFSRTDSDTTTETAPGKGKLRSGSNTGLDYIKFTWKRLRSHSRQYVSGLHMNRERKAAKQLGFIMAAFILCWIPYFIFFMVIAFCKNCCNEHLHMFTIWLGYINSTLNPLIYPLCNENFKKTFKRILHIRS
Value type: Ki (nM)
Report the value in nM with no unit label.

[[record]]
compound = "CS(=O)(=O)c1ccc(C(=O)N2CCN(c3ccc(OC4CCN(C5CCC5)CC4)cc3)CC2)cc1"
reported = 2510


Let's switch to this compound now.
Q) Bench note: what Ki did O=c1c2ccccc2c(Cc2ccc(Cl)cc2)nn1C[C@H]1CCCN1CCCCc1ccc(OCCCN2CCCCCC2)cc1 [GSK-1004723] show?
A) 15.8

====

Assay overview: Oral bioavailability in monkey at 1 mg/kg
Assay type: ADME, organism-based, Macaca mulatta
Assay conditions: rhesus monkey, in vivo
Value type: bioavailability (%)
Report the value in % with no unit label.

Q) Bench note: what bioavailability did "C[C@@H]1CCCN1CCc1cc2cc(-c3ccc(C#N)cc3)ccc2o1" show?
A) 89

====

Measured target: UniProtKB Q9QYN8
Sequence (Q9QYN8 whole entry): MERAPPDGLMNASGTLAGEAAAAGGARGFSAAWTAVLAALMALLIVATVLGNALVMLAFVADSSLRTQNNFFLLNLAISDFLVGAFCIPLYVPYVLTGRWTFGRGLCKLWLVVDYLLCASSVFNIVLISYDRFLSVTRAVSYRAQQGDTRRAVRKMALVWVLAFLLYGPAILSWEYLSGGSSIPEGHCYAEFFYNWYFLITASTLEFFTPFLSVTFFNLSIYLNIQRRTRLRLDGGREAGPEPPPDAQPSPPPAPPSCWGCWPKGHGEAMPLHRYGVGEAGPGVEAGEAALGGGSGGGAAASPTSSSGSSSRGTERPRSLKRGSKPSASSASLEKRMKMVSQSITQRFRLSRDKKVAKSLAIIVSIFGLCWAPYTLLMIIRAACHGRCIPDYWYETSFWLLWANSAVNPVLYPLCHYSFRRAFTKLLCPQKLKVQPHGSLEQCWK
Assay overview: Binding affinity to rat cortical histamine H3 receptor
Assay conditions: read-out: Ki
Value type: Ki
Note: state the figure and append the unit.

Q) Bench note: what Ki did "CC(C)(C)CCC#C[C@@H]1C[C@H]1c1c[nH]cn1" show?
A) 0.18 nM

====

Measured target: Histamine H3 receptor (Homo sapiens)
Sequence (Q9Y5N1 whole entry): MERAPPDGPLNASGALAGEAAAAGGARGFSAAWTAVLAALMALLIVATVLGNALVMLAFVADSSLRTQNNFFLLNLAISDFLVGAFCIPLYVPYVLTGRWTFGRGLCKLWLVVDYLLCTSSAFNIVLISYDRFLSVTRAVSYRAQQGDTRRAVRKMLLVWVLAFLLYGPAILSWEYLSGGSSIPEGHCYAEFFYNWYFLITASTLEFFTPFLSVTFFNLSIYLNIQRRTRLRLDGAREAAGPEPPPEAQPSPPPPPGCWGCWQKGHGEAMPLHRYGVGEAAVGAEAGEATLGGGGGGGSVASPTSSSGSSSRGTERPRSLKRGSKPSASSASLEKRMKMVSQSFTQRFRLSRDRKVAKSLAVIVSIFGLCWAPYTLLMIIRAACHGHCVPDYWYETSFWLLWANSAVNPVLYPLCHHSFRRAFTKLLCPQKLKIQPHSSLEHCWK
Assay overview: Inverse agonist activity at human histamine H3 receptor by GTPgammaS binding assay
Value type: IC50 (nM)
Report the value in nM with no unit label.

Q) Bench note: what IC50 did "CC(C)N1CCCN(C(=O)C2CCN(c3ccc(C(F)(F)F)nc3)CC2)CC1" show?
A) 2.51

====

Assay overview: Oral bioavailability in dog at 1 mg/kg
Type: ADME, organism-based, Canis lupus familiaris
Assay conditions: in vivo
Value type: bioavailability (%)
Report the value in % with no unit label.

Q) Bench note: what bioavailability did "C[C@@H]1CCCN1CCc1cc2cc(-c3ccc(C#N)cc3)ccc2o1" show?
A) 74
